Source listed as paper PMC12730265.

# System: C. albicans
# TEST_PROTOCOL: Kirby–Bauer disk diffusion assay on IL-containing YPD plates
# Assay type: cell-based
# ASSAY_CONDITIONS: [HMIM]Cl 2.5 mM in plate
Kindly state Zone of inhibition (ZOI) diameter for each of the entries shown.
One number for each entry, in mm.

Need Zone of inhibition (ZOI) diameter for each of these compounds.
1. CCC(C)n1ncn(-c2ccc(N3CCN(c4ccc(OCC5COC(Cn6cncn6)(c6ccc(Cl)cc6Cl)O5)cc4)CC3)cc2)c1=O (stereo not shown)
2. Clc1ccccc1C(c1ccccc1)(c1ccccc1)n1ccnc1
3. CC(=O)N1CCN(c2ccc(OCC3COC(Cn4ccnc4)(c4ccc(Cl)cc4Cl)O3)cc2)CC1 (stereo not shown)

1: 0; 2: 10.33; 3: 17

GET /values?readout=Zone of inhibition (ZOI) diameter&item= `OC(Cn1cncn1)(Cn1cncn1)c1ccc(F)cc1F`
0

* * *

# Tested on: HeLa cells
# TEST_PROTOCOL: CellTiter-Blue cytotoxicity assay
# Assay type: cell-based, human
# ASSAY_CONDITIONS: Homo sapiens, HeLa, 24 h, read-out: EC50 (50% viability)
MEASUREMENT_KIND: EC50 (mM)
Give bare numbers, in mM.

GET /values?readout=EC50&item= CCCCCCn1cc[n+](C)c1.[Cl-] [[HMIM]Cl, 1-hexyl-3-methylimidazolium chloride]
14.1

* * *

# Test system: S. boulardii
# TEST_PROTOCOL: MIC50 by microbroth dilution
# Type: cell-based
# ASSAY_CONDITIONS: Saccharomyces cerevisiae; 50% growth after 48 h in YPD media, OD600; read-out: MIC50
MEASUREMENT_KIND: MIC50 (µg/mL)
Give bare numbers, in µg/mL.

[[record]]
compound = "Clc1ccccc1C(c1ccccc1)(c1ccccc1)n1ccnc1 [Clotrimazole]"
number = 1

[[record]]
compound = "OC(Cn1cncn1)(Cn1cncn1)c1ccc(F)cc1F [Fluconazole]"
number = 4

[[record]]
compound = "CC(=O)N1CCN(c2ccc(OCC3COC(Cn4ccnc4)(c4ccc(Cl)cc4Cl)O3)cc2)CC1 (centres unmarked) [Ketoconazole]"
number = 0.5


GET /values?readout=MIC50&item= CCC(C)n1ncn(-c2ccc(N3CCN(c4ccc(OCC5COC(Cn6cncn6)(c6ccc(Cl)cc6Cl)O5)cc4)CC3)cc2)c1=O (centres unmarked) [Itraconazole]
0.5

* * *

# Test system: S. cerevisiae
# TEST_PROTOCOL: Kirby–Bauer disk diffusion assay on IL-containing YPD plates
# Type: cell-based
# ASSAY_CONDITIONS: [HMIM]Cl 6.25 mM in plate; 100 = no growth on plate
MEASUREMENT_KIND: Zone of inhibition (ZOI) diameter (mm)
One number for each entry, in mm.

[[record]]
molecule = "Clc1ccccc1C(c1ccccc1)(c1ccccc1)n1ccnc1"
number = 50.33

[[record]]
molecule = "OC(Cn1cncn1)(Cn1cncn1)c1ccc(F)cc1F"
number = 43.33

[[record]]
molecule = "CCC(C)n1ncn(-c2ccc(N3CCN(c4ccc(OCC5COC(Cn6cncn6)(c6ccc(Cl)cc6Cl)O5)cc4)CC3)cc2)c1=O (stereo not shown)"
number = 14


GET /values?readout=Zone of inhibition (ZOI) diameter&item= CC(=O)N1CCN(c2ccc(OCC3COC(Cn4ccnc4)(c4ccc(Cl)cc4Cl)O3)cc2)CC1 (stereo not shown)
63

* * *

# Test system: C. albicans
# TEST_PROTOCOL: Kirby–Bauer disk diffusion assay on IL-containing YPD plates
# Type: cell-based
# ASSAY_CONDITIONS: [HMIM]Cl 6.25 mM in plate
Kindly state Zone of inhibition (ZOI) diameter for each of the entries shown.
Answers are plain numbers, in mm.

Worked cases, answers included:
[[record]]
compound = "CC(=O)N1CCN(c2ccc(OCC3COC(Cn4ccnc4)(c4ccc(Cl)cc4Cl)O3)cc2)CC1 (stereo not shown) [Ketoconazole]"
number = 29

[[record]]
compound = "Clc1ccccc1C(c1ccccc1)(c1ccccc1)n1ccnc1 [Clotrimazole]"
number = 25.67

[[record]]
compound = "OC(Cn1cncn1)(Cn1cncn1)c1ccc(F)cc1F [Fluconazole]"
number = 31.33


Next compound, please.
GET /values?readout=Zone of inhibition (ZOI) diameter&item= CCC(C)n1ncn(-c2ccc(N3CCN(c4ccc(OCC5COC(Cn6cncn6)(c6ccc(Cl)cc6Cl)O5)cc4)CC3)cc2)c1=O (stereo not shown) [Itraconazole]
12.67

* * *

# Tested on: C. albicans
# TEST_PROTOCOL: Kirby–Bauer disk diffusion assay on IL-containing YPD plates
# Type: cell-based
# ASSAY_CONDITIONS: absence of added IL
MEASUREMENT_KIND: inhibition of C. albicans growth around disk

[[record]]
compound = "CCC(C)n1ncn(-c2ccc(N3CCN(c4ccc(OCC5COC(Cn6cncn6)(c6ccc(Cl)cc6Cl)O5)cc4)CC3)cc2)c1=O (stereo not shown)"
tested_on = "C. albicans"
result = "no inhibition"

[[record]]
compound = "OC(Cn1cncn1)(Cn1cncn1)c1ccc(F)cc1F"
tested_on = "C. albicans"
result = "no inhibition"

[[record]]
compound = "CC(=O)N1CCN(c2ccc(OCC3COC(Cn4ccnc4)(c4ccc(Cl)cc4Cl)O3)cc2)CC1 (stereo not shown)"
tested_on = "C. albicans"
result = "minimal inhibition"

[[record]]
compound = "Clc1ccccc1C(c1ccccc1)(c1ccccc1)n1ccnc1"
tested_on = "C. albicans"
result = "minimal inhibition"


* * *

# Tested on: S. cerevisiae
# TEST_PROTOCOL: Kirby–Bauer disk diffusion assay on IL-containing YPD plates
# Assay type: cell-based
# ASSAY_CONDITIONS: [HMIM]Cl 2.5 mM in plate; 100 = no growth on plate
MEASUREMENT_KIND: Zone of inhibition (ZOI) diameter (mm)
Answers are plain numbers, in mm.

[[record]]
compound = "OC(Cn1cncn1)(Cn1cncn1)c1ccc(F)cc1F"
tested_on = "S. cerevisiae"
measurement_kind = "Zone of inhibition (ZOI) diameter"
number = 36


Need Zone of inhibition (ZOI) diameter for each of these compounds.
1. CC(=O)N1CCN(c2ccc(OCC3COC(Cn4ccnc4)(c4ccc(Cl)cc4Cl)O3)cc2)CC1 (stereo not shown)
2. CCC(C)n1ncn(-c2ccc(N3CCN(c4ccc(OCC5COC(Cn6cncn6)(c6ccc(Cl)cc6Cl)O5)cc4)CC3)cc2)c1=O (stereo not shown)
3. Clc1ccccc1C(c1ccccc1)(c1ccccc1)n1ccnc1

1: 27.33; 2: 9.33; 3: 26.67
